Molecular target: RRM2 (Homo sapiens, UniProt P31350)
Construct: recombinant purified RRM2, lysine-labelled for MST
Sequence (P31350 1-389): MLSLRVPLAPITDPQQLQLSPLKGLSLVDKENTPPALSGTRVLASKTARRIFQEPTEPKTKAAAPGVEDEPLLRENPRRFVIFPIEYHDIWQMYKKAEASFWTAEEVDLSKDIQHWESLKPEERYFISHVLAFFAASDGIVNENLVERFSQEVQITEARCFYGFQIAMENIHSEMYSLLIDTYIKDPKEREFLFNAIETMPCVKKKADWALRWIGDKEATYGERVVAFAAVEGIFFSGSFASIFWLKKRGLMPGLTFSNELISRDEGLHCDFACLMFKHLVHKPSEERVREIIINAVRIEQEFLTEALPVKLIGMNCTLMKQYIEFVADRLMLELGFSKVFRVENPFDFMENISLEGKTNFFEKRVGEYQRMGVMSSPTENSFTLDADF
Assay: microscale thermophoresis
observable: Kd (µM)

>>> df
           line_notation                        tested_system  unit_tag  obs_value
0  Oc1ccc(OCc2ccccc2)cc1  RRM2 (Homo sapiens, UniProt P31350)        µM       22.5

These data points were gathered from paper PMC9564123.
